From: ChEMBL document CHEMBL1201862

- Tested on: LOX IMVI
- assay.summary: NCI tumour cell line growth inhibition, 48 h
Calls of active or inactive are those of the source. Cut-off read from the data, not from the text of the source: active = GI50 up to about 1.1 µM and inactive = higher.
For each entry below, report its GI50 value.

Please indicate GI50 recorded for CCOC(=O)P(=O)(O)c1ccc(N(C)Cc2ccccc2)cc1
> 100 µM (inactive)

Could you please provide reported GI50 for Cc1cc(C(=O)NCCN(C)C)c2nc3ccccc3nc2c1 ? Thanks!
2.22 µM (inactive)

Quote GI50 reported for Cc1c2cc[n+](CCN3CCCCC3)cc2c(C)c2c1[nH]c1ccc(O)cc12 please.
4.41 µM (inactive)

Give reported GI50 value for Cc1c(F)c(N)c2c(=O)cc(-c3ccc(NC(=O)C(N)CCCNC(=N)N)c(F)c3)oc2c1F (centres undefined)
38.1 µM (inactive)

Let me know recorded GI50 for COc1cccc(-c2cc(O)c3cc(OC)c(OC)cc3n2)c1 , thanks.
64.7 µM (inactive)

// Input: O=c1n(-c2ccc(Cl)c(Cl)c2)c(=O)n(-c2ccc(Cl)c(Cl)c2)c(=O)n1-c1ccc(Cl)c(Cl)c1 . Output its GI50 only.
2.55 µM (inactive)

Kindly indicate its recorded GI50. Item: O=C(O)c1ccccc1CC1Cc2ccccc2C1
> 100 µM (inactive)

For the molecule COC(=O)C12CCC(CC1=O)C2(C)C (centres undefined) , report GI50.
> 100 µM (inactive)

Return the recorded GI50 value; entry: COc1cc([C@H]2c3cc(O)c(OC)cc3C[C@]3(O)[C@@H]2CO[C@@H]3O)ccc1O
> 100 µM (inactive)

For COc1ccc2[nH]c(CCNC(=O)c3cc([N+](=O)[O-])cc([N+](=O)[O-])c3)cc2c1 , write its GI50.
64.1 µM (inactive)

Quick one: give measured GI50 for C/C(=N\NC(N)=S)c1ccccn1.OB(O)c1ccccc1
2.58 µM (inactive)

Please supply the value of reported GI50 for the item C=C1C(=O)O[C@@H]2C[C@]3(C)CC[C@]4(C)[C@H](CC[C@@H]5[C@@]6(C)CCC(=O)C(C)(C)[C@@H]6CC[C@]54C)[C@H]3[C@H]12 [OCHRACEOLIDE A]
15.2 µM (inactive)

Retrieve GI50 measured for Clc1ccc2c(c1)N(CCCN1CCCC13CCCCC3)c1ccccc1S2 and print it.
12.4 µM (inactive)

State its GI50 for this molecule: Cc1cccc2c(=O)cc(-c3ccccc3)[nH]c12
4.58 µM (inactive)

Give reported GI50 value for CCCCCCCCCCCC(=O)OCC1OC(n2cc(F)c(=O)[nH]c2=O)C(NC(=O)OCc2ccccc2)C(O)C1O (centres undefined)
18.4 µM (inactive)

Retrieve GI50 measured for N#CC1C2CCC3(CC2CCN1C(=O)c1ccccc1)OCCO3 (centres undefined) and print it.
> 100 µM (inactive)

Read off the recorded GI50 for CCO/C=N/NC(=O)CSc1nc2ccc(I)cc2c(=O)n1Cc1ccccc1
63.8 µM (inactive)

Give GI50 for the following molecule: CC(C)(C)C(=O)O[C@@H]1COC2C(O)COC21 (some centres undefined)
> 100 µM (inactive)

Look up and state reported GI50 for CCCCCCCCOC(=O)C12Oc3ccc(-c4ccc5c(c4O)C(=O)C4=C(O)CC(C)C(O)C4(C(=O)OCCCCCCCC)O5)c(O)c3C(=O)C1=C(O)CC(C)C2O (centres undefined)
25.5 µM (inactive)
